Below, each entry is listed alongside its reported inhibition.
# assayed system: Dual specificity protein phosphatase 6 (Homo sapiens) (UniProt Q16828)
# Sequence (Q16828 whole entry, looked up): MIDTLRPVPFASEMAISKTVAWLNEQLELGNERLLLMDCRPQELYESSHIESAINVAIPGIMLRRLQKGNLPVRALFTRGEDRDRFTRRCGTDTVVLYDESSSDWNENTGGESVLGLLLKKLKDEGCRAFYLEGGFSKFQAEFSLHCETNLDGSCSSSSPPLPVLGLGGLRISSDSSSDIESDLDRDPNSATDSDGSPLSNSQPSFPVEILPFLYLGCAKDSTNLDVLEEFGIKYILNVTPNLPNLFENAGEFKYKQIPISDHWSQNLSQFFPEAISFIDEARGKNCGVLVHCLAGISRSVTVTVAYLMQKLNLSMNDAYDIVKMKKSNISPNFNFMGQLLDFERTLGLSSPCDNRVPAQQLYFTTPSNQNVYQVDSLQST
# test summary: DUSP6 inhibitors restoring Erk phosphorylation by chemical complementation, primary imaging in DUSP6-transfected HeLa (AID 609);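 also: phospho-Erk level distribution per well compared with pooled transfected vehicle control wells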
# details: HeLa MKP-3 transfected, phospho-Erk imaging KS statistic; at 10 µM; hits give high values; cells stimulated with TPA for 15 min
observed property: inhibition (%)

CC(=O)[C@@]1(O)CC[C@H]2[C@@H]3CCC4=CC(=O)CC[C@]4(C)[C@H]3[C@@H](O)C[C@@]21C    -4.44
COC1=CC(=O)CC(C)C12Oc1c(Cl)c(OC)cc(OC)c1C2=O (stereo unspecified)    -8.38
CCOC(=O)CSc1nc(NC#N)nc(N(CC)CC)n1    13.2
O=C(O)c1cc(O)c2c(c1)C(=O)c1cccc(O)c1C2=O    3.45
C=CCOC(=O)C1=C(C)NC(SCC(=O)N(CC)CC)=C(C#N)C1c1ccccc1 (stereo unspecified)    -0.584
O=C(O)/C=C/c1ccc(O)c(O)c1    10.2
CC(C)N1CCc2c(sc(N)c2C#N)C1    2.71
CC(C)CC(=O)Nc1ccccc1N1CCCC1    9.39
Cn1c(=O)c2c(nc(Br)n2CCSc2ncccn2)n(C)c1=O    21.4
CN=c1sc2ccccc2n1CC(O)COc1ccccc1 (stereo unspecified)    -0.624
Cc1oc2cc(O)cc(C)c2c(=O)c1-c1cnn(-c2ccccc2)c1    15.9
